- Tested on: 786-0 complex spheroid viability
- protocol: Anticancer human tumor 786-0 cell line growth inhibition;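 also: spheroids exposed to agents for seven days before readout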
- details: curve of first compound; second compound 10 µM
pIC50: −log10 of the molar value.
The molecules listed here are annotated with their pIC50.

# annotated cases, reported pIC50 shown
molecule="Nc1ccn(C2OC(CO)C(O)C2(F)F)c(=O)n1 (centres undefined) + NC1CCC(NC2CC2c2ccccc2)CC1" valuetype=pIC50 observedmeasurement="> 9.02"
molecule="CC(C)c1c(-c2ccccc2)nc2c(C#N)c[nH]n2c1=O + NC1CCC(NC2CC2c2ccccc2)CC1" valuetype=pIC50 observedmeasurement="< 5.00"
molecule="Nc1ncn(C2CC(O)C(CO)S2)c(=O)n1 (centres undefined) + NC1CC1c1ccc(-c2cccc(O)c2)cc1" valuetype=pIC50 observedmeasurement="< 6.52"

Kindly consider the entry below.
Prompt line: Provide value of pIC50 for this record tested with 786-0 complex spheroid viability: Nc1ncn(C2CC(O)C(CO)O2)c(=O)n1 (centres undefined) + NC1CC1c1ccc(-c2cccc(O)c2)cc1
Response line: < 6.00
